Data origin, for the record: ChEMBL document CHEMBL2046430

- System: A549
- assayComment: Antiproliferative activity against human A549 cells after 48 hrs by MTT assay
- Format: functional, cell-based
- testConditions: A549, 48 h
Some compounds, each annotated with its measured pIC50.
Just the number, please; pIC50 means minus log10 of the concentration in mol/L.

Before answering, review these 3 worked examples.
[[record]]
cpdsmiles = "O=C(/C=C\\c1cn(-c2ccccc2)nc1-c1ccc(Br)cc1)Nc1ccc(Br)cc1"
assayresult = 4.91

[[record]]
cpdsmiles = "Cc1ccc(-c2nn(-c3ccccc3)cc2/C=C\\C(=O)Nc2ccc(Br)cc2)cc1"
assayresult = 4.93

[[record]]
cpdsmiles = "O=C(/C=C\\c1cn(-c2ccccc2)nc1-c1ccc([N+](=O)[O-])cc1)Nc1ccc(Cl)cc1"
assayresult = 5.43


Ask: Under A549: pIC50 value of `O=C(/C=C\c1cn(-c2ccccc2)nc1-c1ccc([N+](=O)[O-])cc1)Nc1ccccc1` ?
Result: 5.29

Ask: // map `COc1ccc(-c2nn(-c3ccccc3)cc2/C=C\C(=O)Nc2ccc(Br)cc2)cc1` to recorded pIC50 (system: A549)
Result: 5.13

* * *

Measured pIC50 of individual entries
- System: A549
- assayComment: Antiproliferative activity against human A549 cells after 48 hrs by MTT assay
- Format: functional, cell-based
- testConditions: A549, 48 h
Just the number, please; pIC50 means minus log10 of the concentration in mol/L.

As a guide, the following entries are already answered.
[[record]]
cpdsmiles = "COc1ccc(-c2nn(-c3ccccc3)cc2/C=C\\C(=O)Nc2ccccc2)cc1"
tgt = "A549"
assayresult = 5.01

[[record]]
cpdsmiles = "O=C(/C=C\\c1cn(-c2ccccc2)nc1-c1ccc(Br)cc1)Nc1ccc(Cl)cc1"
tgt = "A549"
assayresult = 4.80

[[record]]
cpdsmiles = "Cc1ccc(-c2nn(-c3ccccc3)cc2/C=C\\C(=O)Nc2ccc(Cl)cc2)cc1"
tgt = "A549"
assayresult = 4.81

[[record]]
cpdsmiles = "COc1ccc(-c2nn(-c3ccccc3)cc2/C=C\\C(=O)Nc2ccc(Cl)cc2)cc1"
tgt = "A549"
assayresult = 5.09

[[record]]
cpdsmiles = "Cc1ccc(-c2nn(-c3ccccc3)cc2/C=C\\C(=O)Nc2ccccc2)cc1"
tgt = "A549"
assayresult = 4.79


Ask: What value of pIC50 has been recorded for this entry: `O=C(/C=C\c1cn(-c2ccccc2)nc1-c1ccc([N+](=O)[O-])cc1)Nc1ccc(Br)cc1`
Result: 5.43

Ask: Entry under review: `COc1ccc(NC(=O)/C=C\c2cn(-c3ccccc3)nc2-c2ccc(OC)cc2)cc1` . Reported pIC50?
Result: 5.07

Ask: May I ask what pIC50 has been recorded for `COc1ccc(NC(=O)/C=C\c2cn(-c3ccccc3)nc2-c2ccc([N+](=O)[O-])cc2)cc1` ?
Result: 5.29

* * *

# maps each entry to its pIC50
- Tested on: A549
- assayComment: Antiproliferative activity against human A549 cells after 48 hrs by MTT assay
- Type: functional, cell-based
- testConditions: A549, 48 h
pIC50: −log10 of the molar value.

[[record]]
compound = "COc1ccc(NC(=O)/C=C\\c2cn(-c3ccccc3)nc2-c2ccc(Br)cc2)cc1"
endpointname = "pIC50"
assayresult = "< 4.70"

[[record]]
compound = "O=C(/C=C\\c1cn(-c2ccccc2)nc1-c1ccc(Br)cc1)Nc1ccccc1"
endpointname = "pIC50"
assayresult = "< 4.70"

[[record]]
compound = "COc1ccc(NC(=O)/C=C\\c2cn(-c3ccccc3)nc2-c2ccc(C)cc2)cc1"
endpointname = "pIC50"
assayresult = "< 4.70"


--- query ---
Ask: # returns recorded pIC50 (system: A549) for Nc1ccccc1NC(=O)c1ccc(CNC(=O)OCc2cccnc2)cc1 [ENTINOSTAT]
Result: > 7.00
